pest or weed control at 25 ppm listing for selected molecules.
# System: Mycosphaerella graminicola; Anamorph: Septoria tritici; Bayer Code SEPTTR
# EXPERIMENT_DESCRIPTION: Leaf blotch of wheat, foliar fungicide treatment, one day protectant (1DP) or three day curative (3DC)
# Type: in vivo, Septoria tritici on wheat plants (variety Yuma)
# EXPERIMENTAL_CONTEXT: Zymoseptoria tritici, 24 h, one day protectant (1DP), 25 ppm, rating of percent disease control, read-out: SETTTR 1DP 25 ppm

Example molecules with recorded pest or weed control at 25 ppm:
{"columns": ["CHEMICAL_SMILES", "pest or weed control at 25 ppm"],
 "data": [
  ["O=C(Nc1nc(OCc2cccc(F)c2)ncc1F)OCc1ccccc1", "51 to 75%"],
  ["Nc1nc(OCc2ccc(OCc3ccccc3)cc2)ncc1F", "76 to 100%"],
  ["ON(Cc1ccccc1)c1nc(OCc2ccc(F)cc2)ncc1F", "76 to 100%"]
]}

Asked: Quick check: pest or weed control at 25 ppm of Nc1nc(OCc2ccoc2)ncc1F ?
Given back: 76 to 100%

Asked: Item: COc1cccc(COc2ncc(F)c(NN3CCOCC3)n2)c1
Given back: 0 to 25%

---

# Test system: Mycosphaerella graminicola; Anamorph: Septoria tritici; Bayer Code SEPTTR
# EXPERIMENT_DESCRIPTION: Leaf blotch of wheat, foliar fungicide treatment, one day protectant (1DP) or three day curative (3DC)
# Assay type: in vivo, Septoria tritici on wheat plants (variety Yuma)
# EXPERIMENTAL_CONTEXT: Zymoseptoria tritici, 72 h, three day curative (3DC), 25 ppm, percent control rating, read-out: SEPTTR 3DC 25 ppm
pest or weed control at 25 ppm listing for selected compounds.

Example compounds with recorded pest or weed control at 25 ppm:
{"columns": ["CHEMICAL_SMILES", "pest or weed control at 25 ppm"],
 "data": [
  ["COc1ncc(F)c(NNc2ccccc2Cl)n1", "0 to 25%"],
  ["O=S(=O)(Nc1nc(O)ncc1F)c1ccccc1Cl", "0 to 25%"],
  ["COc1ncc(F)c(NOCCOc2ccccc2)n1", "0 to 25%"]
]}

Consider the additional compound presented here.
Asked: Quick check: pest or weed control at 25 ppm of O=C(NCc1ccco1)Nc1nc(O)ncc1F ?
Given back: 0 to 25%

---

# Test system: Mycosphaerella graminicola; Anamorph: Septoria tritici; Bayer Code SEPTTR
# EXPERIMENT_DESCRIPTION: Leaf blotch of wheat, foliar fungicide treatment, one day protectant (1DP) or three day curative (3DC)
# Assay type: in vivo, Septoria tritici on wheat plants (variety Yuma)
# EXPERIMENTAL_CONTEXT: Zymoseptoria tritici, 72 h, three day curative, 25 ppm, rating of percent disease control, read-out: SEPTTR 3DC 25 ppm
METRIC_NAME: pest or weed control at 25 ppm

Example compounds with recorded pest or weed control at 25 ppm:
{"columns": ["COMPOUND", "pest or weed control at 25 ppm"],
 "data": [
  ["CC(C)OCNc1nc(OCc2ccc(F)cc2)ncc1F", "76 to 100%"],
  ["Cc1ccc(COc2ncc(F)c(NNC3CCCCC3)n2)cc1", "0 to 25%"],
  ["COc1cccc(COc2ncc(F)c(NOCc3ccccc3)n2)c1", "0 to 25%"]
]}

Asked: Quick check: pest or weed control at 25 ppm of C/C(=N\Nc1nc(OCc2ccc(C)cc2)ncc1F)c1ccc(C)o1 ?
Given back: 26 to 50%

Asked: Item: Cc1cc(C(C)Oc2ncc(F)c(N)n2)ccc1Cl (centres unmarked)
Given back: 76 to 100%

Asked: Item: Fc1cccc(COc2ncc(F)c(/N=C/N3CCOCC3)n2)c1
Given back: 76 to 100%

Asked: Item: CCCNC(=S)Nc1nc(OCc2cccc(F)c2)ncc1F
Given back: 76 to 100%

Asked: Item: CCOCNc1nc(OCc2cccc(OC)c2)ncc1F
Given back: 76 to 100%

Asked: Item: O=C(Nc1ccsc1)Nc1nc(OCc2ccc(F)cc2)ncc1F
Given back: 26 to 50%

Asked: Item: O=CNc1nc(OS(=O)(=O)c2ccccc2)ncc1F
Given back: 76 to 100%

Asked: Item: Nc1nc(OCc2ccc(Cl)c([N+](=O)[O-])c2)ncc1F
Given back: 76 to 100%
